src = the supplement of paper PMC11061612

- System: GI-ME-N (Neuroblastoma)
- Assay name: combination Emax (second highest fraction inhibited in the dose matrix, 72 h); higher = more inhibition; extreme values may be limits of the assay
Each entry below lists one item and its recorded combination Emax value.

| Compound | combination Emax |
| --- | --- |
| COc1cccc(OCCCN)c1-c1cc(Nc2cnc(C#N)cn2)n[nH]1 [Prexasertib] + O=C(c1cc(Cc2n[nH]c(=O)c3ccccc23)ccc1F)N1CCN(C(=O)C2CC2)CC1 [Olaparib] (first compound max 1 µM, 7x7, partner max 10 µM) | 0.452 |
| CN(CCO)CC[C@H](CSc1ccccc1)Nc1ccc(S(=O)(=O)NC(=O)c2ccc(N3CCC([C@@H](O)c4ccccc4-c4ccc(Cl)cc4)CC3)cc2)cc1S(=O)(=O)C(F)(F)F [AZD4320] + C1CN(CCC1(C(=O)N[C@@H](CCO)C2=CC=C(C=C2)Cl)N)C3=NC=NC4=C3C=CN4 [Capivasertib] (first compound max 1 µM, 7x7, partner max 3 µM) | 0.153 |
| CC1(C)CCC(CN2CCN(c3ccc(C(=O)NS(=O)(=O)c4ccc(NCC5CCOCC5)c([N+](=O)[O-])c4)c(Oc4cnc5[nH]ccc5c4)c3)CC2)=C(c2ccc(Cl)cc2)C1 [Venetoclax] + CN(C)CCCOc1ccc(-c2ccc3ncc4c(c3c2)n(C2CCOCC2)c(=O)n4C)cn1 [AZD0156] (first compound max 1 µM, 7x7, partner max 1 µM) | 0.226 |
| C=CCn1c(=O)c2cnc(Nc3ccc(N4CCN(C)CC4)cc3)nc2n1-c1cccc(C(C)(C)O)n1 [AZD1775] + O=C(c1cc(Cc2n[nH]c(=O)c3ccccc23)ccc1F)N1CCN(C(=O)C2CC2)CC1 [Olaparib] (first compound max 1 µM, partner max 10 µM) | 0.337 |
| COc1nnc2ccc(N3CCC(c4ccc(OCCN5CCN(C)C(=O)[C@H]5C)cc4)CC3)nn12 [AZD5153] + C[C@@H]1COCCN1C2=NC(=NC(=C2)C3(CC3)[S@](=N)(=O)C)C4=C5C=CNC5=NC=C4 [AZD6738] (first compound max 1 µM, 7x7, partner max 10 µM) | 0.464 |
| CCN(CCO)CCCOc1ccc2c(Nc3cc(CC(=O)Nc4cccc(F)c4)[nH]n3)ncnc2c1 [AZD2811] + C[C@@H]1COCCN1C2=NC(=NC(=C2)C3(CC3)[S@](=N)(=O)C)C4=C5C=CNC5=NC=C4 [AZD6738] (first compound max 1 µM, 7x7, partner max 10 µM) | 0.552 |
| CC1(C)CCC(CN2CCN(c3ccc(C(=O)NS(=O)(=O)c4ccc(NCC5CCOCC5)c([N+](=O)[O-])c4)c(Oc4cnc5[nH]ccc5c4)c3)CC2)=C(c2ccc(Cl)cc2)C1 [Venetoclax] + Cc1cc2ncnn2cc1Nc1ncc2c(n1)n(C1CCOCC1)c(=O)n2C [AZD7648] (first compound max 1 µM, 7x7, partner max 10 µM) | 0.186 |
| CN(C)CCCOc1ccc(-c2ccc3ncc4c(c3c2)n(C2CCOCC2)c(=O)n4C)cn1 [AZD0156] + O=C(c1cc(Cc2n[nH]c(=O)c3ccccc23)ccc1F)N1CCN(C(=O)C2CC2)CC1 [Olaparib] (first compound max 3 µM, partner max 3 µM) | 0.193 |
| C=CCn1c(=O)c2cnc(Nc3ccc(N4CCN(C)CC4)cc3)nc2n1-c1cccc(C(C)(C)O)n1 [AZD1775] + C1CN(CCC1(C(=O)N[C@@H](CCO)C2=CC=C(C=C2)Cl)N)C3=NC=NC4=C3C=CN4 [Capivasertib] (first compound max 3 µM, partner max 3 µM) | 0.451 |
| COc1cccc2c1C(=O)c1c(O)c3c(c(O)c1C2=O)C[C@@](O)(C(=O)CO)C[C@@H]3O[C@H]1C[C@H](N)[C@H](O)[C@H](C)O1 [Doxorubicin] + Cc1cc2ncnn2cc1Nc1ncc2c(n1)n(C1CCOCC1)c(=O)n2C [AZD7648] (first compound max 1 µM, 7x7, partner max 10 µM) | 0.812 |
